// data source = patent US20120015938A1

Quick reference for IC50 among some molecules
Tgt: Human DGAT1 (Homo sapiens)
Sequence (O75907 whole entry): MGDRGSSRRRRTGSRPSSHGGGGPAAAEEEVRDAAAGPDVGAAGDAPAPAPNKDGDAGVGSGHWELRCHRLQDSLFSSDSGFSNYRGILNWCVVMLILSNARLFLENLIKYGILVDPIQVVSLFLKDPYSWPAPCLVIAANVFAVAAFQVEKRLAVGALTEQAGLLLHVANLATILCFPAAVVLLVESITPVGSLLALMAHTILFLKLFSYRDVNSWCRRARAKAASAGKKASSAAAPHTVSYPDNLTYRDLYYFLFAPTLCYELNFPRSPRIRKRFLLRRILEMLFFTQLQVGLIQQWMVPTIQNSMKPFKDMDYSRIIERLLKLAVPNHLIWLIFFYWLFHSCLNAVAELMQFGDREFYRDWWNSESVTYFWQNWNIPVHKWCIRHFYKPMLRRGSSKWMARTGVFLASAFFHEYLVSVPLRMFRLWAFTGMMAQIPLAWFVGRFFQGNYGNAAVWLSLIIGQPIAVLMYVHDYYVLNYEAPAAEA
Kindly provide the numeric value in nM only, without the unit symbol.

CN1C(=O)C(NC(=O)C(C)(C)NC(=O)c2ccccc2)N=C(Cc2ccc(OC(F)(F)F)cc2)c2cc(F)ccc21 (single isomer, unassigned) [Example 2 Enantiomer B] = 164
CN1C(=O)C(NC(=O)C(C)(C)NC(=O)c2ccccc2)N=C(Cc2ccc(OC(F)(F)F)cc2)c2ccccc21 (single isomer, unassigned) [Example 4 Enantiomer A] = 308
CN1C(=O)C(NC(=O)C(C)(C)NC(=O)c2ccccc2)N=C(Cc2ccc(OC(F)(F)F)cc2)c2cc(F)ccc21 (single isomer, unassigned) [Example 2 Enantiomer A] = 569
CN1C(=O)C(NC(=O)C(C)(C)NC(=O)c2ccc(F)cc2)N=C(Cc2ccc(OC(F)(F)F)cc2)c2cc(F)ccc21 (single isomer, unassigned) [Example 1 Enantiomer A] = 483

Please fill in: IC50 reported for CN1C(=O)C(NC(=O)C(C)(C)NC(=O)c2ccc(F)cc2)N=C(Cc2ccc(OC(F)(F)F)cc2)c2cc(F)ccc21 (single isomer, unassigned) [Example 1 Enantiomer B] = 133

====

IC50 tested on Human DGAT1 (Homo sapiens): recorded values
Kindly provide the numeric value in nM only, without the unit symbol.

CN1C(=O)C(NC(=O)C(C)(C)NC(=O)c2ccc(F)cc2)N=C(Cc2ccc(OC(F)(F)F)cc2)c2ccccc21 (single isomer, unassigned) [Example 3 Enantiomer B] = 125

Please fill in: IC50 reported for CN1C(=O)C(NC(=O)C(C)(C)NC(=O)c2ccc(F)cc2)N=C(Cc2ccc(OC(F)(F)F)cc2)c2ccccc21 (single isomer, unassigned) [Example 3 Enantiomer A] = 181

Please fill in: IC50 reported for CN1C(=O)C(NC(=O)C(C)(C)NC(=O)c2ccccc2)N=C(Cc2ccc(OC(F)(F)F)cc2)c2ccccc21 (single isomer, unassigned) [Example 4 Enantiomer B] = 127
